Values compiled from patent US6632794B1.

Recorded pIC50 by entry
- Assay Target: IGFBP-3 (Homo sapiens)
- Experiment: BIAcore competition assay, IGFBP-3 binding to immobilized IGF-I
- Condition: bp3-01-ox variants by BIAcore competition assay; read-out: IGF-I Inhibition IC50
Positions of bridges follow the written chain, without caps; N, C: chain ends. Residues, ends and D or L forms follow the SMILES beside them.
Keep in mind that pIC50 stands for -log10 of concentration in molar terms.

*Q* // query pIC50 value for entry CC(C)C[C@@H]1NC(=O)[C@H](Cc2ccc(O)cc2)NC(=O)[C@H](Cc2c[nH]c3ccccc23)NC(=O)[C@H](CCC(=O)O)NC(=O)[C@H](C)NC(=O)[C@H](C(C)C)NC(=O)[C@@H]2CCCN2C(=O)[C@H](Cc2c[nH]c3ccccc23)NC(=O)[C@@H](NC(=O)[C@@H](NC(=O)[C@H](CCC(=O)O)NC(=O)[C@H](CCC(=O)O)NC(=O)[C@@H](N)CO)C(C)C)CSSC[C@@H](C(=O)N[C@@H](CC(N)=O)C(N)=O)NC1=O [bp3-39] (H-SEEVCWPVAEWYLCN-NH2; disulfide 5-14 (inferred); N-terminus assumed)
*A* 6.18

*Q* // query pIC50 value for entry CC(C)C[C@@H]1NC(=O)[C@H](Cc2ccc(O)cc2)NC(=O)[C@H](Cc2c[nH]c3ccccc23)NC(=O)[C@H](CCC(=O)O)NC(=O)[C@H](C)NC(=O)[C@H](C(C)C)NC(=O)[C@@H]2CCCN2C(=O)[C@H](Cc2c[nH]c3ccccc23)NC(=O)[C@@H](NC(=O)[C@@H](NC(=O)[C@@H](N)CCC(=O)O)C(C)C)CSSC[C@@H](C(=O)N[C@@H](CC(N)=O)C(=O)O)NC1=O [bp3-27] (H-EVCWPVAEWYLCN-OH; disulfide 3-12; N-terminus and C-terminus assumed)
*A* 5.55

---

- Assay Target: IGFBP-3 (Homo sapiens, UniProt P17936)
- Sequence (P17936 28-291): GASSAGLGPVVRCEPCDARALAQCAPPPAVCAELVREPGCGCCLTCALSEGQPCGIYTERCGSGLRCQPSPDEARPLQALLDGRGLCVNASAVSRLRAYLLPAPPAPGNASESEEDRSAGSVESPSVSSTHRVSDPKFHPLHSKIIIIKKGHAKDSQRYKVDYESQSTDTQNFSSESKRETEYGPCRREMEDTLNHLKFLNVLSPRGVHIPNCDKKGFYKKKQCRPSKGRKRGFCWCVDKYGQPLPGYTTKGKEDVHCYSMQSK
- Experiment: BIAcore competition assay, IGFBP-3 binding to immobilized IGF-I
- Condition: bp3-01-ox variants by BIAcore; wt = bp3-01-ox
- Protocol: A. BIAcore™ Competition Assay (for IGFBP-3 Binders) IGF-I was immobilized on a dextran chip for inhibition assays using a BIAcore™ 2000 surface-plasmon-resonance device (BIAcore, Inc., Piscataway, N.J.) to measure free binding protein. […] Serial dilutions of peptide were mixed with a constant concentration (40 nM) of IGFBP-3. […] Following the injection, a response reading was taken to measure the relative amount of IGFBP-3 bound to the IGF-I.
Positions of bridges follow the written chain, without caps; N, C: chain ends. Residues, ends and D or L forms follow the SMILES beside them.
Recorded IGF-I Inhibition IC50 (mut)/IC50 (wt) by entry

Record excerpt, results attached:
Compound	IGF-I Inhibition IC50 (mut)/IC50 (wt)
CC(=O)N[C@@H](CO)C(=O)N[C@@H](CCC(=O)O)C(=O)N[C@@H](CCC(=O)O)C(=O)N[C@H](C(=O)N[C@H]1CSSC[C@@H](C(=O)N[C@@H](CC(N)=O)C(N)=O)NC(=O)[C@H](CC(C)C)NC(=O)[C@H](Cc2ccc(O)cc2)NC(=O)[C@H](Cc2c[nH]c3ccccc23)NC(=O)[C@H](CCC(=O)O)NC(=O)[C@H](C)NC(=O)[C@H](C(C)C)NC(=O)[C@@H]2CCCN2C(=O)[C@H](Cc2c[nH]c3ccccc23)NC1=O)C(C)C [bp3-40] (Ac-SEEVCWPVAEWYLCN-NH2; disulfide 5-14 (inferred))	0.33
CC(C)C[C@@H]1NC(=O)[C@H](Cc2ccc(O)cc2)NC(=O)[C@H](Cc2c[nH]c3ccccc23)NC(=O)[C@H](CCC(=O)O)NC(=O)[C@H](C)NC(=O)[C@H](C(C)C)NC(=O)[C@@H]2CCCN2C(=O)[C@H](Cc2c[nH]c3ccccc23)NC(=O)[C@@H](NC(=O)[C@@H](NC(=O)[C@@H](N)CCC(=O)O)C(C)C)CSSC[C@@H](C(=O)N[C@@H](CC(N)=O)C(=O)O)NC1=O [bp3-27] (H-EVCWPVAEWYLCN-OH; disulfide 3-12; N-terminus and C-terminus assumed)	1.4

*Q* // query IGF-I Inhibition IC50 (mut)/IC50 (wt) value for entry CC(C)C[C@@H]1NC(=O)[C@H](Cc2ccc(O)cc2)NC(=O)[C@H](Cc2c[nH]c3ccccc23)NC(=O)[C@H](CCC(=O)O)NC(=O)[C@H](C)NC(=O)[C@H](C(C)C)NC(=O)[C@@H]2CCCN2C(=O)[C@H](Cc2c[nH]c3ccccc23)NC(=O)[C@@H](NC(=O)[C@@H](NC(=O)[C@H](CCC(=O)O)NC(=O)[C@@H](N)CCC(=O)O)C(C)C)CSSC[C@@H](C(=O)N[C@@H](CC(N)=O)C(=O)O)NC1=O [bp3-28] (H-EEVCWPVAEWYLCN-OH; disulfide 4-13 (inferred); N-terminus and C-terminus assumed)
*A* 2.7

*Q* // query IGF-I Inhibition IC50 (mut)/IC50 (wt) value for entry CC(C)C[C@@H]1NC(=O)[C@H](Cc2ccc(O)cc2)NC(=O)[C@H](Cc2c[nH]c3ccccc23)NC(=O)[C@H](CCC(=O)O)NC(=O)[C@H](C)NC(=O)[C@H](C(C)C)NC(=O)[C@@H]2CCCN2C(=O)[C@H](Cc2c[nH]c3ccccc23)NC(=O)[C@@H](NC(=O)[C@@H](NC(=O)[C@H](CCC(=O)O)NC(=O)[C@H](CCC(=O)O)NC(=O)[C@@H](N)CO)C(C)C)CSSC[C@@H](C(=O)N[C@@H](CC(N)=O)C(N)=O)NC1=O [bp3-39] (H-SEEVCWPVAEWYLCN-NH2; disulfide 5-14 (inferred); N-terminus assumed)
*A* 0.33

*Q* // query IGF-I Inhibition IC50 (mut)/IC50 (wt) value for entry CC(C)C[C@@H]1NC(=O)[C@H](Cc2ccc(O)cc2)NC(=O)[C@H](Cc2c[nH]c3ccccc23)NC(=O)[C@H](CCC(=O)O)NC(=O)[C@H](C)NC(=O)[C@H](C(C)C)NC(=O)[C@@H]2CCCN2C(=O)[C@H](Cc2c[nH]c3ccccc23)NC(=O)[C@@H](NC(=O)[C@@H](NC(=O)[C@H](CCC(=O)O)NC(=O)[C@H](CCC(=O)O)NC(=O)[C@@H](N)CO)C(C)C)CSSC[C@@H](C(=O)N[C@@H](CC(N)=O)C(=O)O)NC1=O [BP15] (H-SEEVCWPVAEWYLCN-OH; disulfide 5-14; N-terminus and C-terminus assumed)
*A* 0.36
